Provenance of the data: PubChem BioAssay AID1845212

Please go through the items and note down their viability, T/C.
- System: NCI-H719 tumor spheroids, viability
- MEASUREMENT NOTES: Anticancer human tumor NCI-H719 cell line growth inhibition;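 note: spheroids exposed to compounds for seven days; percent viability relative to DMSO vehicle control as 100%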
- CONDITION DESCRIPTION: second compound 0.3 µM; first compound 3 µM; stronger effect = lower value; spheroids with HUVEC and MSC
Express it in %; write the number only.

Exam item: Requested field: viability, T/C. Item: Cc1sc2c(c1C)C(c1ccc(Cl)cc1)=NC(CC(=O)Nc1ccc(O)cc1)c1nnc(C)n1-2 (centres undefined) + CC[C@@]1(O)C(=O)OCc2c1cc1n(c2=O)Cc2cc3c(CN(C)C)c(O)ccc3nc2-1
Marked response: 0.66

Exam item: Requested field: viability, T/C. Item: CNCc1ccc(-c2cc(-c3nc(-c4ccc(S(=O)(=O)C(C)C)cc4)cnc3N)on2)cc1 + CC[C@@]1(O)C(=O)OCc2c1cc1n(c2=O)Cc2cc3c(CN(C)C)c(O)ccc3nc2-1
Marked response: 0.15

Exam item: Requested field: viability, T/C. Item: Cn1ncnc1[C@H]1c2n[nH]c(=O)c3cc(F)cc(c23)N[C@@H]1c1ccc(F)cc1 + CC[C@@]1(O)C(=O)OCc2c1cc1n(c2=O)Cc2cc3c(CN(C)C)c(O)ccc3nc2-1
Marked response: 5.47

Exam item: Requested field: viability, T/C. Item: O=C(c1cc(Cc2n[nH]c(=O)c3ccccc23)ccc1F)N1CCN(C(=O)C2CC2)CC1 + CC[C@@]1(O)C(=O)OCc2c1cc1n(c2=O)Cc2cc3c(CN(C)C)c(O)ccc3nc2-1
Marked response: 5.43
